Data credit: patent US20220017636A1

- measured_target: T1, ADF peptide complexed with HLA-A*02:01 on T2 cells (human)
- T1 construct: whole, on cells
- experimental_protocol: flow cytometry, peptide-loaded T2 cells;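 note: binding of single-chain Fv antibody constructs, raised in XenoMouse, to peptide-pulsed T2 cells measured by flow cytometry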
Hi there, I'd appreciate the recorded Signal/background for every entry that follows.
Numbers only.

binder="18182-H9 (scFv, scFv in bacterial lysate, detected with anti-Flag M2) scFv: EVQLLESGGGLVQPGGSLRLSCAASGFTFSSHAMSWVRQAPGKGLEWVSAISGSGGGTYYADSVKARFTISRDNSKNTLYLQMNSLRAEDTAVYYCATGKGVHLGFDYWGQGTLVTVSSGGGGSGGGGSGGGGSELVLTQPPSVSVAPGQTARITCGGNNIGSKSVHWHQQKPGQAPVLVVYDDNDRPSGIPERFSGSNSGNTATLTISRVEAGDEADFYCQVWDSSSDHVVFGGGTKLTVL" measured_attribute=Signal/background obs_value=1

Okay, now this binder:
Give the measured Signal/background for 18181-G8 (scFv, scFv in bacterial lysate, detected with anti-Flag M2) scFv: EVQLLESGGGLVQPGGSLRLSCAASGFTFSNAWMSWVRQAPGKGLEWVGRIKGNTYGGTTDYAAPVKGRFTISRDDSKNTLFLQMNSLKTEDTAVYYCTTPSNSGSYYNYFSVMDVWGQGTTVTVSSGGGGSGGGGSGGGGSELVMTQSPSSLSASVGDRVTITCRTSQSISSYLNWYQQKPGKAPKLLIYAASSLQSGVPSRFSGSGSGTDFTLTISSLQPEDFATYYCQQTYSMPFTFGGGTKVEIK
1
